Hey, just so you know, these numbers are from patent US20080194656A1.

Target: Cb-1 receptor stably expressed in CHO-K1 cells (Homo sapiens, UniProt P21554)
Construct: host or cells: CHO-K1
Sequence (P21554 whole entry): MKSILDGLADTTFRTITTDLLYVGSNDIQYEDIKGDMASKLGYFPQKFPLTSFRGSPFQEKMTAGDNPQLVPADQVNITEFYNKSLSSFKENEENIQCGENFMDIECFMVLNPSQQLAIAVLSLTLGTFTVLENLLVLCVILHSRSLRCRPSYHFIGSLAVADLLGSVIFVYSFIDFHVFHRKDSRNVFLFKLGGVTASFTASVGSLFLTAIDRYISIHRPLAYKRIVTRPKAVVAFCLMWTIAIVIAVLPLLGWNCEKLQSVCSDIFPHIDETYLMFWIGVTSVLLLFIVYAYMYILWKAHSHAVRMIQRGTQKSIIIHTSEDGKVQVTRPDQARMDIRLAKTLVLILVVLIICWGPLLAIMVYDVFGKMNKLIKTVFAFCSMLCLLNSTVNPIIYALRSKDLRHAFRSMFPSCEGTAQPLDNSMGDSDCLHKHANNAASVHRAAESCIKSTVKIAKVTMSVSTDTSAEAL
Assay: Cyclic AMP accumulation (HTRF cAMP assay, antagonism of CP55940)
Type: cell-based
Conditions: forskolin and CP55940 (agonist), 30 min at 25° C.
MEASURED_ATTRIBUTE: Example C2 cAMP (antagonism) pIC50

>  <MOLECULE>
CCCCn1nnc2ccc(C(c3ccc(Cl)cc3)n3cncn3)cc21 (stereo not shown) [Compound 8]

>  <REPORTED_MEASUREMENT>
6.62

$$$$
>  <MOLECULE>
CC(C)n1nnc2ccc(C(c3ccc(Cl)cc3)n3cncn3)cc21 (stereo not shown) [Compound 7]

>  <REPORTED_MEASUREMENT>
6.9

$$$$
>  <MOLECULE>
c1ccc(C(c2ccc3nnn(C4CCCCC4)c3c2)n2ccnc2)cc1 (stereo not shown) [Compound 9]

>  <REPORTED_MEASUREMENT>
5.79

$$$$
>  <MOLECULE>
Clc1ccc(C(c2ccc3nnn(-c4ccccc4)c3c2)n2ccnc2)cc1 (stereo not shown) [Compound 10]

>  <REPORTED_MEASUREMENT>
6.38

$$$$
